The reported measurements were obtained from paper PMC7294093.

measuredTarget: hHsp70-CSSAS (hHsp70 C267S/C306S/C574A/C603S) (human, UniProt P0DMV8 1-641, C267S | C306S | C574A | C603S)
Sequence (P0DMV8 whole entry C267S/C306S/C574A/C603S): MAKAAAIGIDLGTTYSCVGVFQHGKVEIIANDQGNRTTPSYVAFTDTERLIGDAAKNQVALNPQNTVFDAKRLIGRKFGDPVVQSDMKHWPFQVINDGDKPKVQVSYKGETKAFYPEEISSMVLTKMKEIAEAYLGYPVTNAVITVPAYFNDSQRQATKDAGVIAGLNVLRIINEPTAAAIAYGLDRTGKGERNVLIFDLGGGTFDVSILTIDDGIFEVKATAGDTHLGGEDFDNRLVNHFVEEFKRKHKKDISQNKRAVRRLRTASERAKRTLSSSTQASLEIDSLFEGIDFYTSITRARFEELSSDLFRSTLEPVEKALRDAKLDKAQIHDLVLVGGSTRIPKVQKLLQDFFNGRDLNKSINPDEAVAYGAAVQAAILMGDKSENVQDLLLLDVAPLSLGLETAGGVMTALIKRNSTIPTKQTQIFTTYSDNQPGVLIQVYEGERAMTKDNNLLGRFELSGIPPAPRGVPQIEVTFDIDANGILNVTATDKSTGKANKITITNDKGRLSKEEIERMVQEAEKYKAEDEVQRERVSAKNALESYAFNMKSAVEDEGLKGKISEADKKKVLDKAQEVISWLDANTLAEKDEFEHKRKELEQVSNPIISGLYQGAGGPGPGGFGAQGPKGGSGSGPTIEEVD
testSummary: fluorescence polarisation; steady state; 20 nM FAR with increasing hHsp70 or mutant; apo (no nucleotide); Buffer B; RT, 60 min; single site binding model
particulars: both partners purified
Ends that are not written are not given here. * marks the point of attachment. FITC = O=C1OC2(c3ccc(O)cc3Oc3cc(O)ccc32)c2ccc(NC(=S)*)cc21
observedProperty: Kd (µM)
Just the number in µM, nothing appended.

// returns reported Kd for input {FITC}-ALLLSAPRR (fluorescently labeled peptide substrate) [FITC-labeled ALLLSAPRR (FAR) peptide]
1.44
